Entries and their GFP response, % of DMSO values follow.
# assayText: modulators of CIT2-GFP expression in yeast, confirmation, S. cerevisiae, GFP fusion, cherry picks, mother/daughter gates (AID 2274)
# conditionDetails: S. cerevisiae CIT2-GFP strain, flow cytometry, 3 h; measured here: mother cell gate; at 10 µM; stronger effect = higher value
The answer should read as a number with its unit following.

Input line: Give the reported value of GFP response, % of DMSO for this record: `Cc1cc(-c2csc3nc[nH]c(=S)c23)cc(C)c1C`
Output line: 104%

Input line: Identify the reported GFP response, % of DMSO for the following entry. `COc1ccc(N=Cc2cc(Cc3ccccc3Cl)cc([N+](=O)[O-])c2O)cc1OC`
Output line: 96.6%

Input line: Tell me GFP response, % of DMSO reported for `O=C(NCCCSc1ccccc1)c1cc(Cl)ccc1O`
Output line: 94.5%

Input line: Provide GFP response, % of DMSO value for the following molecule: `COc1cc(NC(C)=O)ccc1NC(=O)c1cc2ccccc2o1`
Output line: 101%

Input line: For the molecule `CC(=O)Oc1oc(-c2ccccc2)nc1C=Nc1ccccc1` , give its measured GFP response, % of DMSO value.
Output line: 89.3%

Input line: Quick one: give measured GFP response, % of DMSO for `CCN(CC)C(=O)Cn1c(C)c(/C=C/c2cc[n+](C)cc2)c2ccccc21`
Output line: 105%
